Listing: DC50 of selected compounds
- Assay System: BRAF V600E (Homo sapiens, UniProt P15056, V600E)
- Sequence (P15056 whole entry V600E): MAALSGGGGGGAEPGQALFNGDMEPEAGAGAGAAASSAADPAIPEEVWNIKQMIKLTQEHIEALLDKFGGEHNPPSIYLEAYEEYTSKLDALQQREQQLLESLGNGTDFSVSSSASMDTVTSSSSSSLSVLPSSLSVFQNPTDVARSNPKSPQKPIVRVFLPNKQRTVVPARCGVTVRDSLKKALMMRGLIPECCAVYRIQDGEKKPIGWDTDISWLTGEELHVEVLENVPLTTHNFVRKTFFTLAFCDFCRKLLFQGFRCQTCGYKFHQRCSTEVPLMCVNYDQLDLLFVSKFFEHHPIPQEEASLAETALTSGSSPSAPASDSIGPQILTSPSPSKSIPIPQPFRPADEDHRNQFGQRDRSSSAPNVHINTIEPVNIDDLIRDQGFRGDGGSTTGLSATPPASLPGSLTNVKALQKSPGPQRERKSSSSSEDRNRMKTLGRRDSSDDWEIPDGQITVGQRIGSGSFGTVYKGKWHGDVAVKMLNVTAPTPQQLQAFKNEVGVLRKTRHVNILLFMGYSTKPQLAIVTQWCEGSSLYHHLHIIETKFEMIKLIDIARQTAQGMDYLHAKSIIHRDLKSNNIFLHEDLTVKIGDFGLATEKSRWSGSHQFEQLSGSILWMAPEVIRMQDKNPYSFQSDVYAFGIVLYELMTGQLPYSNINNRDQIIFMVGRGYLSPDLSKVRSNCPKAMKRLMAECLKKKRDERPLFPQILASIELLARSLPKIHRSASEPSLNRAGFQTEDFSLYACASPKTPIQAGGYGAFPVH
- Test Method Notes: HiBiT cellular BRAF^V600E degradation assay
- Type: cell-based
- Run Parameters: A375.10 cells, 24 h; concentration at which 50% of total cellular BRAF^V600E is degraded
Number only, in nM; omit the unit.

1) CCN(C)S(=O)(=O)Nc1ccc(F)c(Oc2ccc3ncn(-c4cnn(C5CCN(C(=O)CN6CCC(c7ccc(NC8CCC(=O)NC8=O)c(F)c7)CC6)CC5)c4)c(=O)c3c2)c1C#N (centres unmarked) [Example 19]    42.3
2) Cn1nc(N2CCC(=O)NC2=O)c2cc(F)c(N3CCC(O)(CC(=O)N4CCC5(CC4)C[C@@H](n4cnc6ccc(Oc7c(F)ccc(NS(=O)(=O)N8CCCC8)c7C#N)cc6c4=O)CO5)CC3)cc21 [Example 195]    16
3) CCN(C)S(=O)(=O)Nc1ccc(F)c(Oc2ccc3ncn(C4CCOC5(CCN(C(=O)CN6CCC(c7ccc(NC8CCC(=O)NC8=O)cc7F)CC6)CC5)C4)c(=O)c3c2)c1C#N (centres unmarked) [Example 29]    33.7

Enquiry: Please give the documented DC50 of CCN(C)S(=O)(=O)Nc1ccc(F)c(Nc2ccc3ncn([C@H]4COC5(CCN(C(=O)CC6(O)CCN(c7cc8c(cc7F)c(N7CCC(=O)NC7=O)nn8C)CC6)CC5)C4)c(=O)c3c2)c1C#N (single isomer, unassigned) [Example 178]
Return: 6.13

Enquiry: Indicate its recorded DC50; the compound in question is CCN(C)S(=O)(=O)Nc1ccc(F)c(Oc2ccc3ncn([C@@H]4CCC5(CCN(C(=O)CN6CCC(c7ccc(N[C@H]8CCC(=O)NC8=O)cc7F)CC6)CC5)C4)c(=O)c3c2)c1C#N [Example 45]
Return: 18.7

Enquiry: Specify reported DC50 for the compound shown: CCN(C)S(=O)(=O)Nc1ccc(F)c(Oc2ccc3ncn([C@H]4COC5(CCN(C(=O)CN6CCC(c7ccc(N[C@@H]8CCC(=O)NC8=O)cc7F)CC6)CC5)C4)c(=O)c3c2)c1C#N [Example 42]
Return: 22.1

Enquiry: Item Cn1nc(N2CCC(=O)NC2=O)c2cc(F)c(N3CCC(O)(CC(=O)N4CCC5(CC4)C[C@@H](n4cnc6ccc(Oc7c(F)ccc(NS(=O)(=O)C8CCCC8)c7C#N)cc6c4=O)CO5)CC3)cc21 [Example 191] : provide DC50
Return: 27.1

Enquiry: Fill in reported DC50 for this entry: CCN(C)S(=O)(=O)Nc1ccc(F)c(Oc2ccc3ncn(CCC4CCN(C(=O)CN5CCC(c6ccc(NC7CCC(=O)NC7=O)cc6F)CC5)CC4)c(=O)c3c2)c1C#N (centres unmarked) [Example 1]
Return: 46.9

###

Measured Emax accompanies every entry in the list below.
- Assay System: BRAF V600E (Homo sapiens, UniProt P15056, V600E)
- Test Method Notes: HiBiT cellular BRAF^V600E degradation assay
- Format: cell-based
- Run Parameters: A375.10 cells, 24 h; residual protein remaining in the cell; read-out: HiBit 24 h Emax
Reply numerically in %, unit not repeated.

As a guide, the following entries are already answered.
1) CCN(C)S(=O)(=O)Nc1ccc(F)c(Oc2ccc3ncn([C@H]4CCC5(CCN(C(=O)CN6CCC(c7ccc8c(N9CCC(=O)NC9=O)nn(C)c8c7)CC6)CC5)C4)c(=O)c3c2)c1C#N    11.1
2) CCN(C)S(=O)(=O)Nc1ccc(F)c(Oc2ccc3ncn(-c4cnc(N5CCN(C(=O)CN6CCC(c7c(F)cc(NC8CCC(=O)NC8=O)cc7OC)CC6)CC5)nc4)c(=O)c3c2)c1C#N (stereo not drawn)    11.5
3) CO[C@@H]1CCN(S(=O)(=O)Nc2ccc(F)c(Oc3ccc4ncn(-c5cnc(N6CCN(C(=O)CN7CCC(c8ccc(N[C@@H]9CCC(=O)NC9=O)cc8F)CC7)CC6)nc5)c(=O)c4c3)c2C#N)C1    10.6
4) CCN(C)S(=O)(=O)Nc1ccc(F)c(Oc2ccc3ncc([C@@H]4COC5(CCN(C(=O)CN6CCC(c7ccc(NC8CCC(=O)NC8=O)cc7F)CC6)CC5)C4)nc3c2)c1C#N (stereo partly drawn)    10.5
5) N#Cc1c(NS(=O)(=O)N2CC[C@@H](F)C2)ccc(F)c1Oc1ccc2ncn(-c3cnc(N4CCN(C(=O)CN5CCC(c6ccc(N[C@H]7CCC(=O)NC7=O)cc6F)CC5)CC4)nc3)c(=O)c2c1    9.01

Please turn your attention to the following entry.
Enquiry: Please give the documented Emax of CCN(C)S(=O)(=O)Nc1ccc(F)c(Oc2ccc3ncc(C4CCC5(CCN(C(=O)CN6CCC(c7ccc(NC8CCC(=O)NC8=O)cc7F)CC6)CC5)C4)nc3c2)c1C#N (stereo not drawn)
Return: 10.5
